# target-under-test: SARS-CoV-2 3CLpro (Severe acute respiratory syndrome coronavirus 2, UniProt P0DTD1)
# assay-explanation: biochemical
# setup-conditions: IC50 (μM), SARS-CoV-2 3CLPro assay
property: IC50 (µM)
# number only, unit µM dropped from output

| molecule | unit-annotation | IC50 |
| --- | --- | --- |
| Cc1cc(C(=O)N[C@@H](CC2CCCCC2)C(=O)NN(CCC(N)=O)C(=O)C(F)Cl)no1 (mixture of isomers) [Example 74] | µM | 0.028 |
| CC(C)C[C@H](NC(=O)/C=C/c1ccccc1)C(=O)NN(CCC(N)=O)C(=O)[C@H](F)Cl (single isomer, unassigned) [Example 86-A] | µM | 0.75 |

// query Please give the measured IC50 for this molecule: NC(=O)CCN(NC(=O)[C@H](CC1CCCCC1)NC(=O)c1cn2ccccc2n1)C(=O)C(F)Cl (mixture of isomers) [Example 82]
// result 0.043

Data provenance: patent US12060333B2
